# System under test: UniProt P12268
# Assay procedure: Inhibition of human IMPDH2
Quantity measured: IC50 (nM)
Respond numerically; units are nM and should not be typed.

1) CC(C)(C)NC(=O)c1ccc2c(=O)c3ccccc3[nH]c2c1 | 59
2) CC(C)(NC(=O)c1ccc2c(=O)c3ccccc3[nH]c2c1)c1ccccn1 | 53
3) CC(C)(NC(=O)c1cc2[nH]c3ccccc3c(=O)c2cc1F)c1ccccc1 | 11

input: Requested field: IC50. Item: "COc1cc(C(C)(C)NC(=O)c2cc3[nH]c4ccccc4c(=O)c3cc2F)cnc1N1CCOCC1"
output: 20

input: Same question, "CN(C)S(=O)(=O)c1ccc(C(C)(C)NC(=O)c2cc3[nH]c4ccccc4c(=O)c3cc2F)cc1" this time
output: 10

input: Would you mind doing "CC(C)(NC(=O)c1ccc2c(=O)c3ccccc3[nH]c2c1)c1ccncc1" as well?
output: 53

input: Follow-up entry: "CC(C)(NC(=O)c1ccc2c(=O)c3ccccc3[nH]c2c1)c1cccnc1"
output: 42

input: Note, next up: "CCN1CCN(c2ccc(C(C)(C)NC(=O)c3cc4[nH]c5ccccc5c(=O)c4cc3F)cn2)CC1"
output: 17

* * *

Reported values of pIC50 for individual entries
# System under test: Inosine-5'-monophosphate dehydrogenase 2 (Homo sapiens)
Recall that pIC50 is obtained by taking minus log10 of the concentration measured in molar.

1. Cc1ccc(C(C)(C)NC(=O)c2cc3[nH]c4ccccc4c(=O)c3cc2F)cn1 | 7.64
2. CC(C)(NC(=O)c1ccc2c(=O)c3ccccc3[nH]c2c1)c1ccccc1 | 7.72

input: Quick one: pIC50 of "CC(C)(NC(=O)c1cc2[nH]c3ccccc3c(=O)c2cc1F)c1ccc(N2CCOCC2)nc1" ?
output: 7.70

Ref: ChEMBL document CHEMBL1146203
